Attribute: pKd
- TARGET_OR_TEST_SYSTEM: Human CD33 S128N (human, UniProt P20138 18-259)
- Sequence (P20138 18-259 S128N): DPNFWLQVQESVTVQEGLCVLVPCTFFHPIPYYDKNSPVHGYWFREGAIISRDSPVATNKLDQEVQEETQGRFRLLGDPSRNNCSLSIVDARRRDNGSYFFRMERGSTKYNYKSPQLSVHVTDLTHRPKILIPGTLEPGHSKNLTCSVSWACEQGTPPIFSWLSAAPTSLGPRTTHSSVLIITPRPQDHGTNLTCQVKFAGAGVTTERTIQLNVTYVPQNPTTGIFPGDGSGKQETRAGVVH
- ASSAY_NOTES: SPR captured Fab
Keep it numeric: pKd is minus log10 of the concentration in mol/L.

Here is how some binders turned out for pKd.
ADI-10161 Fab (Fab, V domains shown, Fab fragment; also called Ab16) VH: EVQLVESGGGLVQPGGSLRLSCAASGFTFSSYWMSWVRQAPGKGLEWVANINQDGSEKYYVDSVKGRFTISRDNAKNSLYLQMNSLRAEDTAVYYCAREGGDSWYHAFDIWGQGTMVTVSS VL: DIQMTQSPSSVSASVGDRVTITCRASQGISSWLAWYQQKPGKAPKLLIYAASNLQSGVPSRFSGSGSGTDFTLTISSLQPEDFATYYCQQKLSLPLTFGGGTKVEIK    7.20
ADI-10157 Fab (Fab, V domains shown, Fab fragment; also called Ab13) VH: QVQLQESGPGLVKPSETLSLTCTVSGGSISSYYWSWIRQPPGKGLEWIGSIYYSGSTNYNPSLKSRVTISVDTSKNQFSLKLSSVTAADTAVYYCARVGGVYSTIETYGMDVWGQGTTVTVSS VL: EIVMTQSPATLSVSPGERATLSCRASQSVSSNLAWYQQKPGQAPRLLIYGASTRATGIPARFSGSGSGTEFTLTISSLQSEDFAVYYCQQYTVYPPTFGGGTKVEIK    6.79

Let us examine a further case.
Notebook: ADI-11828 Fab (Fab, V domains shown, Fab fragment; also called Ab27) VH: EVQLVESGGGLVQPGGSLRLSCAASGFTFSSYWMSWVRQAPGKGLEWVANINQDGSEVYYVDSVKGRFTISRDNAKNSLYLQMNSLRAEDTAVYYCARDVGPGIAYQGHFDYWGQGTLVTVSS VL: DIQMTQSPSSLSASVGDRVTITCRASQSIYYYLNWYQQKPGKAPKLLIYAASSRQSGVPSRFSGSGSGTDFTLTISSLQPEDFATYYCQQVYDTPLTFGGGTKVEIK , pKd read as 8.27
